- Test system: CP335
- Assay Summary: qHTS profiling for inhibitors of Plasmodium falciparum proliferation (AID 504749); also: nearly all actives have a fitted effect of over 60% in size
- Condition Details: P. falciparum in erythrocytes, SYBR Green DNA, 72 h; series mostly up to 12.8 µM
Records with an inconclusive call do not appear. Activity calls are given as the source filed them. Calls follow the shape of the dose curve; as a rule, active = well fitted inhibition curve with a large enough effect; inconclusive = small, poorly fitted or top-dose-only effect; inactive = flat fitted curve, though single readings scatter. Bridge positions count the residues as written; N and C are the ends. Square brackets hold non-standard residues; d marks the D form. Peptide text beside a SMILES is read from it. * marks the point of attachment. Ileψ(thiazoline)Cys = CC[C@H](C)[C@H](N)C1=N[C@H](C(=O)*)CS1; d(aIle) = CC[C@H](C)[C@@H](N)C(=O)O; dOrn = NCCC[C@@H](N)C(=O)O
Classes to choose from: active, inactive

| Compound | Group Label |
| --- | --- |
| CC[C@H](C)[C@H](N)C1=N[C@H](C(=O)N[C@@H](CC(C)C)C(=O)N[C@@H](CCC(=O)O)C(=O)N[C@@H](C(=O)N[C@H]2CCCCNC(=O)[C@@H](CC(N)=O)NC(=O)[C@@H](CC(=O)O)NC(=O)[C@@H](Cc3cnc[nH]3)NC(=O)[C@@H](Cc3ccccc3)NC(=O)[C@@H]([C@@H](C)CC)NC(=O)[C@@H](CCCN)NC2=O)[C@@H](C)CC)CS1 ({Ileψ(thiazoline)Cys}-LE[d(aIle)]K[dOrn][d(aIle)][dF][dH][dD][dN]; lactam 4-C) | inactive |
| COc1ccccc1OC[C@H](O)CO | inactive |
| NC(C(=O)O)[C@@H]1CC(Cl)=NO1 (some centres undefined) | active |

Q: Tell me the recorded outcome of this test for C=CCOc1ccccc1OC[C@H](O)CNC(C)C .
Result: inactive

Q: Short answer needed: outcome of this test for C[C@@H]1C[C@H]2[C@@H]3C[C@H](F)C4=CC(=O)C=C[C@@]4(C)[C@]3(F)[C@H](O)C[C@]2(C)[C@@]1(O)C(=O)CO ?
Result: inactive

Q: In this assay, the call recorded for NC(=O)c1cc[n+](CC2=C(C(=O)[O-])N3C(=O)[C@@H](NC(=O)Cc4cccs4)[C@@H]3SC2)cc1 was what?
Result: inactive

Q: Name the outcome recorded for CC[C@H]1NC(=O)c2cc(S(N)(=O)=O)c(Cl)cc2N1 in the assay.
Result: inactive

Q: Given CC[C@@]12CCCN3CCc4c(n(c5ccccc45)[C@](O)(C(=O)OC)C1)C32 (some centres undefined) , state the outcome it received in this test.
Result: inactive

Q: What did this assay record as the result for COc1c(O[C@H]2O[C@@H](CO)[C@@H](O)[C@@H](O)[C@@H]2O)cc2c(c1OC)-c1ccc(SC)c(=O)cc1[C@H](NC(C)=O)CC2 ?
Result: inactive

Q: Name the outcome recorded for CO[C@]1(NC(=O)[C@H](C(=O)O)c2ccc(O)cc2)C(=O)N2C(C(=O)O)=C(CSc3nnnn3C)CO[C@H]21 in the assay.
Result: inactive

Q: I'd appreciate the recorded outcome for Cc1ccc(S(=O)(=O)NC(=O)NN2C[C@H]3CCC[C@@H]3C2)cc1 from this test.
Result: inactive

Q: Short answer needed: outcome of this test for CN[C@H]1[C@@H](O)[C@@H](NC)[C@@H]2O[C@@]3(O)C(=O)C[C@@H](C)O[C@H]3O[C@H]2[C@H]1O ?
Result: inactive

###

- Test system: DIV14
- Assay Summary: qHTS profiling for inhibitors of Plasmodium falciparum proliferation (AID 504749); also: nearly all actives have a fitted effect of over 60% in size
- Condition Details: P. falciparum in erythrocytes, SYBR Green DNA, 72 h; series mostly up to 12.8 µM
Results filed as inconclusive are left out. Calls of active or inactive are those of the source. Calls follow the shape of the dose curve; as a rule, active = well fitted inhibition curve with a large enough effect; inconclusive = small, poorly fitted or top-dose-only effect; inactive = flat fitted curve, though single readings scatter. Peptide text beside a SMILES is read from it.
Please answer using one outcome listed in label 1 (active), label 0 (inactive)

Answered cases to consult:
| Compound | Group Label |
| --- | --- |
| CCOC(=O)Oc1c(OC)cc(C(=O)O[C@H]2C[C@H]3CN4CCc5c([nH]c6cc(OC)ccc56)[C@@H]4C[C@H]3[C@@H](C(=O)OC)[C@@H]2OC)cc1OC | label 1 |
| C[C@@H]1Cc2ccccc2N1NC(=O)c1ccc(Cl)c(S(N)=O)c1 (some centres not stated) | label 0 |
| CC[C@H]1NC(=O)c2cc(S(N)(=O)=O)c(Cl)cc2N1 | label 0 |
| CN(C)CCc1c[nH]c2ccc(CC3COC(=O)N3)cc12 (configuration not stated) | label 0 |
| C[C@H]1CC[C@]2(OC1)O[C@@H]1C[C@@H]3[C@@H]4CC[C@H]5C[C@@H](O)CC[C@]5(C)[C@@H]4CC(=O)[C@@]3(C)[C@H]1[C@@H]2C | label 0 |

Q: Outcome logged for NC(=O)c1cc[n+](CC2=C(C(=O)[O-])N3C(=O)[C@@H](NC(=O)Cc4cccs4)[C@@H]3SC2)cc1 in this assay:
Result: label 0

Q: State the result this test recorded for CC(=O)[C@]1(O)CCC2C3C=C(Cl)C4=CC(=O)C5CC5[C@@]4(C)C3CC[C@]21C (some centres not stated) .
Result: label 0

Q: Outcome? COC(=O)C(Cc1ccccc1)NC(=O)C(N)CC(=O)O (stereo not drawn) (H-Asp-Phe-OMe; configuration not given here)
Result: label 0

Q: For this compound, state the assay outcome: COc1ccc(OC)c([C@H](O)CNC(=O)CN)c1
Result: label 0

Q: I'd appreciate the recorded outcome for CN1CC(=O)N=C1N from this test.
Result: label 0

Q: Lab log entry: COC1C=CO[C@@]2(C)Oc3c(C)c(O)c4c(O)c(c(C=NN5CCN(C)CC5)c(O)c4c3C2=O)NC(=O)/C(C)=C\C=CC(C)C(O)[C@@H](C)C(O)C(C)[C@H](OC(C)=O)C1C (some centres not stated) — outcome as called in the assay?
Result: label 1

Q: Called result for Cc1onc(-c2ccccc2Cl)c1C(=O)N[C@H]1C(=O)N2[C@H]1SC(C)(C)[C@H]2C(=O)O
Result: label 0

Q: # fetch the recorded call for CO[C@H]1[C@H](O[C@H]2O[C@@H](C)[C@@H](O[C@@H]3C[C@](C)(O)[C@H](O)[C@H](C)O3)[C@@H](N(C)C)[C@@H]2O)[C@@H](CC=O)C[C@@H](C)[C@@H](O[C@H]2CC[C@H](N(C)C)[C@H](C)O2)/C=C\C=C/C[C@@H](C)OC(=O)C[C@H]1O here
Result: label 0

###

Task for the reader: assign each of the following compounds its reported max response.
- Assay Summary: qHTS Assay for Lipid Storage Modulators (AID 1519)
- Condition Details: Drosophila S3 cells, BODIPY lipid droplet/cell ratio, laser cytometry; measured here: lipid channel max response; cells loaded with oleic acid
Records with an inconclusive call do not appear.
One number for each entry, in %.

Worked set:
| Compound | max response (%) |
| --- | --- |
| CC1(C)SC2C(NC(=O)COc3ccccc3)C(=O)N2C1C(=O)O (configuration not stated) | 22.6 |
| CCOC(=O)c1c(C)cc(O)c(C=O)c1O | 3.24 |
| CC1(C)C[C@@H]2C(=O)CCC3O[C@@]3(C)CCC21 (some centres not stated) | 26.4 |
| CCNC(=O)CCC(N)C(=O)O (configuration not stated) | 16.9 |
| CC(=O)N[C@H](Cc1c[nH]c2ccccc12)C(N)=O | 4.03 |

// for each compound below, give its max response
1. CC(C)CCCC(C)C1CCC2C3C(=O)C=C4CC(O)CC[C@@]4(C)C3CC[C@@]12C (some centres not stated)
2. CC1CC[C@@]2(OC1)OC1CC3C4CC[C@H]5CC(O)CC[C@@]5(C)C4CC[C@]3(C)C1C2C (some centres not stated)
3. CC(=O)/C(=C\c1ccccc1)CC(=O)O
4. CC1(C)CC23C(=O)CCC(O)C2(C)CCC13 (configuration not stated)
5. NCCC(=O)N[C@H](Cc1cnc[nH]1)C(=O)O
6. COc1ccc(C2CC(=O)c3c(O)cc(O)cc3O2)cc1O (configuration not stated)
7. Cc1ccnc(N)c1

Result:
1. 5.18
2. 29.7
3. 23.6
4. 10.8
5. 10.9
6. 6.13
7. -8.73

###

- Test system: CP335
- Assay Summary: qHTS profiling for inhibitors of Plasmodium falciparum proliferation (AID 504749); also: nearly all actives have a fitted effect of over 60% in size
- Condition Details: P. falciparum in erythrocytes, SYBR Green DNA, 72 h; series mostly up to 12.8 µM
Records with an inconclusive call do not appear. The source made the active and inactive calls. Calls come from the whole dose curve; as a rule, active = well fitted inhibition curve with a large enough effect; inconclusive = small, poorly fitted or top-dose-only effect; inactive = flat fitted curve, though single readings scatter.
// classify into active, inactive

Q: Called result for CC(=O)OCC(=O)[C@@]1(O)[C@H](C)C[C@@H]2[C@H]3CCC4=CC(=O)C=C[C@]4(C)[C@]3(F)[C@@H](O)C[C@@]21C
Result: inactive

Q: Which result was noted for this compound in the test: Cc1ncc([N+](=O)[O-])n1C[C@H](O)CCl
Result: inactive

###

- Test Target: Rap guanine nucleotide exchange factor 3 (Homo sapiens) (UniProt O95398)
- Sequence (O95398 whole entry, looked up): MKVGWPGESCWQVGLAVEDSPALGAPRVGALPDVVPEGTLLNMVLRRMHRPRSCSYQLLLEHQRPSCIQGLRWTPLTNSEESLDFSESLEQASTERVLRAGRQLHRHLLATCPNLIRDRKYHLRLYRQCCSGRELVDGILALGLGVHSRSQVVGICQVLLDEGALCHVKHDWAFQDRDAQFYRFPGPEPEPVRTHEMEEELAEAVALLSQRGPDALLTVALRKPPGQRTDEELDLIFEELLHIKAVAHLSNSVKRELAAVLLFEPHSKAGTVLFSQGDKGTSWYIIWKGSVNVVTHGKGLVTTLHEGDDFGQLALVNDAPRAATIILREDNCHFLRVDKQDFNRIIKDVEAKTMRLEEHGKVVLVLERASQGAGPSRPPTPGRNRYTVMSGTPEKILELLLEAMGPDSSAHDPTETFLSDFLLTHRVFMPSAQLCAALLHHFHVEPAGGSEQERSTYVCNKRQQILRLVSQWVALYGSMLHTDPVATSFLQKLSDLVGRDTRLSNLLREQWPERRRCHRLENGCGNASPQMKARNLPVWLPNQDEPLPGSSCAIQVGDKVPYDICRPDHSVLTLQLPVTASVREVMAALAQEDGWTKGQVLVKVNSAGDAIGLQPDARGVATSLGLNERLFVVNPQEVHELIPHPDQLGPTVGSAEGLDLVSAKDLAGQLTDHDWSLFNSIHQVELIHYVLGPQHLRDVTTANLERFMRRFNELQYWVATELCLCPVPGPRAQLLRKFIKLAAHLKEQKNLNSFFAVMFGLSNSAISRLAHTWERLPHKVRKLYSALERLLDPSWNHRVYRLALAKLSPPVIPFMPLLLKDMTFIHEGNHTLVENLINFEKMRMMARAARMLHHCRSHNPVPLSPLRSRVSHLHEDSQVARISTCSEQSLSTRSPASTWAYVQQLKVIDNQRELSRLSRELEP
- Assay Summary: Counterscreen qHTS for antagonist of cAMP-regulated guanine nucleotide exchange factor 3 (EPAC1) (AID 1645888);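 also: fluorescence loss as bound BODIPY-GDP is released from Rap1B; % of control where 0% means no effect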
- Condition Details: Rap1B-BODIPY-GDP nucleotide exchange, fluorescence; series mostly up to 154 µM
Results filed as inconclusive are left out. Calls of active or inactive are those of the source. Calls follow the shape of the dose curve; as a rule, active = well fitted inhibition curve with a large enough effect; inconclusive = small, poorly fitted or top-dose-only effect; inactive = no such curve, though single readings can be large or run the other way.
Quantity Name: activity change, negative = inhibition

Use the examples below as a reference point.
| Compound | Test Target | activity change, negative = inhibition |
| --- | --- | --- |
| CCOc1ccc(-n2c(=O)[nH]cc(C(=O)Nc3ccc(OC)c(OC)c3)c2=O)cc1 | Rap guanine nucleotide exchange factor 3 (Homo sapiens) (UniProt O95398) | inactive |
| Cc1cc(/C=N/NC(N)=S)c(O)c(/C=N/NC(N)=S)c1 | Rap guanine nucleotide exchange factor 3 (Homo sapiens) (UniProt O95398) | inactive |
| CCc1cccc2sc(N3CCN(C(=O)C4CC4)CC3)nc12 | Rap guanine nucleotide exchange factor 3 (Homo sapiens) (UniProt O95398) | inactive |
| COc1cc(OC)c(NC(=O)N2CCC(CN3CCOCC3)CC2)cc1Cl | Rap guanine nucleotide exchange factor 3 (Homo sapiens) (UniProt O95398) | inactive |

# return activity change, negative = inhibition for each item in the list
1. COc1ccc(OC)c([C@@H]2OCCC=C[C@H]2C)c1
2. CC(=N\NC(=O)c1ccccc1)/C(=N/O)C(=O)Nc1ccccc1
3. O=C(Cc1ccccc1Cl)Nc1ccc(S(=O)(=O)Nc2nccs2)cc1
4. COc1ccc(Cl)cc1N1C(=O)C2CCCN2C1c1ccccc1F (stereo unspecified)
5. C=CCc1cc(/C=C/c2nc(O)c([N+](=O)[O-])c(=O)[nH]2)cc(OC)c1O
6. CC(=O)Nc1ccc(NC(=O)CCC(=O)OCC(=O)c2ccc(C)c([N+](=O)[O-])c2)cc1
7. COc1ccc(S(=O)(=O)N2CCCC2)cc1C(C)C

Result:
1: inactive; 2: 9.03% [at 30.8 µM] (inactive); 3: inactive; 4: inactive; 5: inactive; 6: inactive; 7: -3.04% [at 30.8 µM] (inactive)

Value source: PubChem BioAssay (NCATS)
